Below are pIC50 values recorded for uPAR-expressing HEC-265 human endometrial adenocarcinoma cells (Homo sapiens).
pIC50: −log10 of the molar value. Where a SMILES comes first, the peptide text is derived from it. Bridges are numbered along the chain shown (N, C = ends). [ ]: non-standard residue; d: D form. The star is where a group is joined. DOTA = O=C(O)CN1CCN(CC(=O)O)CCN(CC(=O)*)CCN(CC(=O)O)CC1; Tyr(3-Cl) = N[C@@H](Cc1ccc(O)c(Cl)c1)C(=O)O; Hyp = O=C(O)[C@@H]1C[C@@H](O)CN1; Pentanoyl(4-Me) = CC(C)CCC(=O)*; Cit = NC(=O)NCCC[C@H](N)C(=O)O; NMeV = CN[C@H](C(=O)O)C(C)C; Nva = CCC[C@H](N)C(=O)O; Pentanoyl = CCCCC(=O)*
Metric: pIC50

* CCCCC(=O)N[C@H]1CSSC[C@@H](C(N)=O)NC(=O)[C@H](CCC)NC(=O)[C@H]([C@@H](C)CC)NC(=O)[C@@H]2C[C@@H](O)CN2C(=O)[C@H](C(C)C)N(C)C(=O)[C@H](Cc2ccccc2)NC(=O)[C@H](Cc2ccc(O)cc2)NC(=O)[C@H](CCC(N)=O)NC(=O)[C@H](CCCNC(=N)N)NC1=O [UPAR-470] (Pentanoyl-CRQYF[NMeV][Hyp]I[Nva]C-NH2; disulfide 1-10) | ≤ 6.90
* CC[C@H](C)[C@@H]1NC(=O)[C@@H]2CCCN2C(=O)[C@@H]2CCCN2C(=O)[C@H](Cc2ccccc2)NC(=O)[C@H](Cc2ccc(O)cc2)NC(=O)[C@H](CCC(N)=O)NC(=O)[C@H](CCCCNC(=O)CN2CCN(CC(=O)O)CCN(CC(=O)O)CCN(CC(=O)O)CC2)NC(=O)[C@@H](NC(=O)CCC(C)C)CSSC[C@@H](C(N)=O)NC(=O)[C@H](CC(C)C)NC1=O [UPAR-466] ({Pentanoyl(4-Me)}-CK(DOTA)QYFPPILC-NH2; disulfide 1-10) | ≥ 8.00
* CC[C@H](C)[C@@H]1NC(=O)[C@@H](C)NC(=O)[C@@H]2CCCN2C(=O)[C@H](Cc2ccccc2)NC(=O)[C@H](Cc2ccc(O)c(Cl)c2)NC(=O)[C@H](CCC(N)=O)NC(=O)[C@H](CCCNC(N)=O)NC(=O)[C@@H](NC(=O)CCC(C)C)CSSC[C@@H](C(N)=O)NC(=O)[C@H](CC(C)C)NC1=O [UPAR-188] ({Pentanoyl(4-Me)}-C[Cit]Q[Tyr(3-Cl)]FP[dA]ILC-NH2; disulfide 1-10) | ≥ 8.00

###

Measured Kd of individual entries
Tested target: human uPAR (uPAR-Fc) (Homo sapiens)
Construct: comprising amino acids Leu23-Arg303 according to UniProt entry Q03405.1; purchased R&D Systems 10378-UK-100
Sequence (Q03405 23-303): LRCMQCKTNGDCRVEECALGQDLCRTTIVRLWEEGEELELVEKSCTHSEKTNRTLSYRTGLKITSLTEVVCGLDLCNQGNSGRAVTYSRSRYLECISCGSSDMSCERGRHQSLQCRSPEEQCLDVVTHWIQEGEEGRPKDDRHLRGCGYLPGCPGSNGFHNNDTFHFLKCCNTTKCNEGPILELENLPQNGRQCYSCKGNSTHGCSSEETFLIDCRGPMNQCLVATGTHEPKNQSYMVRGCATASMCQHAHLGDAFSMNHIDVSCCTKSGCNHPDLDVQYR
Method summary: Surface plasmon resonance (SPR) assay, single cycle kinetics
Assay type: binding
Experimental conditions: pKD category for uPAR SPR activity assay; uPAR-Fc on Protein A-Chip, 25°C; read-out: pKD CAT (converted)
Where a SMILES comes first, the peptide text is derived from it. Bridges are numbered along the chain shown (N, C = ends). [ ]: non-standard residue; d: D form. The star is where a group is joined. Tyr(3-Cl) = N[C@@H](Cc1ccc(O)c(Cl)c1)C(=O)O; Phe(3-Cl) = N[C@@H](Cc1cccc(Cl)c1)C(=O)O; NMeI = CC[C@H](C)[C@H](NC)C(=O)O; Pentanoyl(4-Me) = CC(C)CCC(=O)*; Cit = NC(=O)NCCC[C@H](N)C(=O)O; Nle = CCCC[C@H](N)C(=O)O
Metric: Kd

* CC[C@H](C)[C@@H]1NC(=O)[C@@H](C)NC(=O)[C@@H]2CCCN2C(=O)[C@H](Cc2cccc(Cl)c2)NC(=O)[C@H](Cc2ccc(O)cc2)NC(=O)[C@H](CCC(N)=O)NC(=O)[C@H](CCCNC(N)=O)NC(=O)[C@@H](NC(=O)CCC(C)C)CSSC[C@@H](C(N)=O)NC(=O)[C@H](CC(C)C)NC1=O [UPAR-227] ({Pentanoyl(4-Me)}-C[Cit]QY[Phe(3-Cl)]P[dA]ILC-NH2; disulfide 1-10) | < 1.58 nM
* CC[C@H](C)[C@@H]1NC(=O)[C@@H](C)NC(=O)[C@@H]2CCCN2C(=O)[C@H](Cc2ccccc2)NC(=O)[C@H](Cc2ccc(O)c(Cl)c2)NC(=O)[C@H](CCC(N)=O)NC(=O)[C@H](CCCNC(N)=O)NC(=O)[C@@H](NC(=O)CCC(C)C)CSSC[C@@H](C(N)=O)NC(=O)[C@H](CC(C)C)NC1=O [UPAR-188] ({Pentanoyl(4-Me)}-C[Cit]Q[Tyr(3-Cl)]FP[dA]ILC-NH2; disulfide 1-10) | < 1.58 nM
* CC[C@H](C)[C@@H]1NC(=O)[C@@H](C)NC(=O)[C@@H]2CCCN2C(=O)[C@H](Cc2ccccc2)NC(=O)[C@H](Cc2ccc(O)cc2)NC(=O)[C@H](CCCNC(=N)N)NC(=O)[C@H](CCCNC(N)=O)NC(=O)[C@@H](NC(=O)CCC(C)C)CSSC[C@@H](C(N)=O)NC(=O)[C@H](CC(C)C)NC1=O [UPAR-160] ({Pentanoyl(4-Me)}-C[Cit]RYFP[dA]ILC-NH2; disulfide 1-10) | < 1.58 nM
* CC[C@H](C)[C@H]1C(=O)N[C@@H](CC(C)C)C(=O)N[C@H](C(N)=O)CSSC[C@H](NC(=O)CCC(C)C)C(=O)N[C@@H](CCCNC(N)=O)C(=O)N[C@@H](CCC(N)=O)C(=O)N[C@@H](Cc2ccc(O)cc2)C(=O)N[C@@H](Cc2ccccc2)C(=O)N2CCC[C@H]2C(=O)N[C@H](C)C(=O)N1C [UPAR-340] ({Pentanoyl(4-Me)}-C[Cit]QYFP[dA][NMeI]LC-NH2; disulfide 1-10) | 10 to 100 nM
* CCCC[C@@H]1NC(=O)[C@H](CCCNC(=N)N)NC(=O)[C@@H](NC(=O)[C@H](CC(C)C)NC(=O)[C@H](CC(=O)O)NC(C)=O)CSSC[C@H](C(N)=O)NC(=O)[C@H](CC(C)C)NC(=O)[C@H]([C@@H](C)CC)NC(=O)[C@H](C)NC(=O)[C@@H]2CCCN2C(=O)[C@H](Cc2ccccc2)NC(=O)[C@H](Cc2ccc(O)cc2)NC1=O [UPAR-323] (Ac-DLCR[Nle]YFPAIL[dC]-NH2; disulfide 3-12) | 1.58 to 10 nM

###

Tested target: uPAR-expressing HEC-265 human endometrial adenocarcinoma cells (Homo sapiens, UniProt Q03405)
Sequence (Q03405 23-335): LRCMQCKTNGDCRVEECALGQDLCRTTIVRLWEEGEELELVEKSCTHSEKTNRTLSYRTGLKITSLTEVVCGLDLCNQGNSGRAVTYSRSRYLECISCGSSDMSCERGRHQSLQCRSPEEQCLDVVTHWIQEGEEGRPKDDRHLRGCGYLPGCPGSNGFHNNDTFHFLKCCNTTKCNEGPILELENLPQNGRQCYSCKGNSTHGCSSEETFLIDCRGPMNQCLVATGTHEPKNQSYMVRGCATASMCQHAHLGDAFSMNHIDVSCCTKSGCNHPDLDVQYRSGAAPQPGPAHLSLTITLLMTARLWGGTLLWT
Where a SMILES comes first, the peptide text is derived from it. Bridges are numbered along the chain shown (N, C = ends). [ ]: non-standard residue; d: D form. The star is where a group is joined. DOTA = O=C(O)CN1CCN(CC(=O)O)CCN(CC(=O)*)CCN(CC(=O)O)CC1; Ala(cPr) = N[C@@H](CC1CC1)C(=O)O; Hyp = O=C(O)[C@@H]1C[C@@H](O)CN1; Pentanoyl(4-Me) = CC(C)CCC(=O)*; Cit = NC(=O)NCCC[C@H](N)C(=O)O; Nva = CCC[C@H](N)C(=O)O; Pentanoyl = CCCCC(=O)*; AEEA = NCCOCCOCC(=O)O; Bz = O=C(c1ccccc1)*
Listed next: entries and their corresponding IC50.
Metric: IC50

* CCC[C@@H]1NC(=O)[C@H]([C@@H](C)CC)NC(=O)[C@@H]2C[C@@H](O)CN2C(=O)[C@@H]2CCCN2C(=O)[C@H](Cc2ccccc2)NC(=O)[C@H](Cc2ccc(O)cc2)NC(=O)[C@H](CCC(N)=O)NC(=O)[C@H](CCCNC(=N)N)NC(=O)[C@@H](NC(=O)c2ccccc2)CSSC[C@@H](C(N)=O)NC1=O [UPAR-356] (Bz-CRQYFP[Hyp]I[Nva]C-NH2; disulfide 1-10) | ≤ 10 nM
* CC[C@H](C)[C@@H]1NC(=O)[C@@H](C)NC(=O)[C@@H]2CCCN2C(=O)[C@H](Cc2ccccc2)NC(=O)[C@H](Cc2ccc(O)cc2)NC(=O)[C@H](CCC(N)=O)NC(=O)[C@H](CCCNC(N)=O)NC(=O)[C@@H](NC(=O)CCC(C)C)CSSC[C@@H](C(N)=O)NC(=O)[C@H](CC(C)C)NC1=O [UPAR-338] ({Pentanoyl(4-Me)}-C[Cit]QYFP[dA]ILC-NH2; disulfide 1-10) | ≤ 10 nM
* CC[C@H](C)[C@@H]1NC(=O)[C@@H](C)NC(=O)[C@@H]2CCCN2C(=O)[C@H](Cc2ccccc2)NC(=O)[C@H](Cc2ccc(O)cc2)NC(=O)[C@H](CCC(N)=O)NC(=O)[C@H](CCCNC(N)=O)NC(=O)[C@@H](NC(=O)CCC(C)C)CSSC[C@@H](C(N)=O)NC(=O)[C@H](C)NC1=O [UPAR-402] ({Pentanoyl(4-Me)}-C[Cit]QYFP[dA]IAC-NH2; disulfide 1-10) | 12.6 to 31.6 nM
* CC[C@H](C)[C@@H]1NC(=O)[C@@H](C)NC(=O)[C@@H]2CCCN2C(=O)[C@H](Cc2ccccc2)NC(=O)[C@H](Cc2ccc(O)cc2)NC(=O)[C@H](CCC(N)=O)NC(=O)[C@@H](C)NC(=O)[C@@H](NC(=O)[C@H](CC(C)C)NC(=O)COCCOCCNC(=O)CN2CCN(CC(=O)O)CCN(CC(=O)O)CCN(CC(=O)O)CC2)CSSC[C@@H](C(N)=O)NC(=O)[C@H](CC(C)C)NC1=O [UPAR-216] ({DOTA-AEEA}-LC[dA]QYFP[dA]ILC-NH2; disulfide 2-11) | ≥ 126 nM
* CCCCC(=O)N[C@H]1CSSC[C@@H](C(N)=O)NC(=O)[C@H](CC2CC2)NC(=O)[C@H]([C@@H](C)CC)NC(=O)[C@@H]2C[C@@H](O)CN2C(=O)[C@@H]2CCCN2C(=O)[C@H](Cc2ccccc2)NC(=O)[C@H](Cc2ccc(O)cc2)NC(=O)[C@H](CCC(N)=O)NC(=O)[C@H](CCCNC(=N)N)NC1=O [UPAR-379] (Pentanoyl-CRQYFP[Hyp]I[Ala(cPr)]C-NH2; disulfide 1-10) | ≤ 10 nM

Reference for the values: patent EP4610269A1
